src = patent US5955440A

- target_entity: rat pituitary cells (Rattus norvegicus, UniProt P30969)
- Construct: endogenous in cells; host or cells: rat pituitary cells
- assay_remarks: LH inhibition from rat pituitary cells, antagonist potency (pA2)
- Type: cell-based
- stated_conditions: negative log of antagonist concentration shifting the leuprolide response curve to two-fold higher concentration, Table 2
Recorded Kb, one value per entry.
Write the number in nM without appending the unit.

molecule	target_entity	Kb, nM
CC[C@H]1OC(=O)[C@H](C)[C@@H](O[C@H]2C[C@@](C)(OC)[C@@H](O)[C@H](C)O2)[C@H](C)[C@@H](O[C@@H]2O[C@H](C)C[C@H](N(C)C3CCCC3)[C@H]2O)[C@](C)(OC)C[C@@H](C)C(=O)[C@H](C)[C@H]2N(CCc3ccc(Cl)cc3)C(=O)O[C@]12C [Example 23]	rat pituitary cells (Rattus norvegicus, UniProt P30969)	50.1
CC[C@H]1OC(=O)[C@H](C)[C@@H](O[C@H]2C[C@@](C)(OC)[C@@H](O)[C@H](C)O2)[C@H](C)[C@@H](O[C@@H]2O[C@H](C)C[C@H](N(C)C3CCC3)[C@H]2O)[C@](C)(OC)C[C@@H](C)C(=O)[C@H](C)[C@H]2N(CCc3ccc(F)c(F)c3)C(=O)O[C@]12C [Example 30]	rat pituitary cells (Rattus norvegicus, UniProt P30969)	5.25

Now consider the entry below.
Kb for CC[C@H]1OC(=O)[C@H](C)[C@@H](O[C@H]2C[C@@](C)(OC)[C@@H](O)[C@H](C)O2)[C@H](C)[C@@H](O[C@@H]2O[C@H](C)C[C@H](N(C)CC)[C@H]2O)[C@](C)(OC)C[C@@H](C)C(=O)[C@H](C)[C@H]2N(CCc3ccc(Cl)cc3)C(=O)O[C@]12C [Example 21] is 55

###

Recorded Ki, one value per entry.
- target_entity: LHRH rat pituitary receptor (Rattus norvegicus)
- Construct: from tissue; host or cells: rat pituitary
- Sequence (P30969 whole entry): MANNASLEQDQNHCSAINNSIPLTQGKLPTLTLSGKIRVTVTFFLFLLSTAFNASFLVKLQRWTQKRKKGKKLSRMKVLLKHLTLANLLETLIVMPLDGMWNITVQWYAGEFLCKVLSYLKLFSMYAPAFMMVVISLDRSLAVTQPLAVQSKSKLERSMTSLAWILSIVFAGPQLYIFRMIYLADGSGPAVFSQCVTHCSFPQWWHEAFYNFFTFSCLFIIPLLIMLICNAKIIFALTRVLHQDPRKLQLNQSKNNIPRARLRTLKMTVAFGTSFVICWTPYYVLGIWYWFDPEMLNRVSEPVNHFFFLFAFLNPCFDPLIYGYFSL
- assay_remarks: LHRH rat pituitary receptor binding (pKI)
- stated_conditions: negative logarithm of the equilibrium dissociation constants, Table 1, read-out: receptor binding affinity (pKI) (converted)
Write the number in nM without appending the unit.

Consider the worked cases shown below.
compound	Ki, nM
CC[C@H]1OC(=O)[C@H](C)[C@@H](O[C@H]2C[C@@](C)(OC)[C@@H](O)[C@H](C)O2)[C@H](C)[C@@H](O[C@@H]2O[C@H](C)C[C@H](N(C)C3CC3)[C@H]2O)[C@](C)(OC)C[C@@H](C)C(=O)[C@H](C)[C@H]2N(CCc3ccc(Cl)c(Cl)c3)C(=O)O[C@]12C [Example 2]	0.575
CC[C@H]1OC(=O)[C@H](C)[C@@H](O[C@H]2C[C@@](C)(OC)[C@@H](O)[C@H](C)O2)[C@H](C)[C@@H](O[C@@H]2O[C@H](C)C[C@H](N(C)CCCc3cccc(C)n3)[C@H]2O)[C@](C)(OC)C[C@@H](C)C(=O)[C@H](C)[C@H]2N(CCc3ccc(F)c(Cl)c3)C(=O)O[C@]12C [Example 87]	2.24
CC[C@H]1OC(=O)[C@H](C)[C@@H](O[C@H]2C[C@@](C)(OC)[C@@H](O)[C@H](C)O2)[C@H](C)[C@@H](O[C@@H]2O[C@H](C)C[C@H](N(C)Cc3ccc(-c4ccc(Cl)cc4)o3)[C@H]2O)[C@](C)(OC)C[C@@H](C)C(=O)[C@H](C)[C@H]2N(CCc3ccc(Cl)c(Cl)c3)C(=O)O[C@]12C [Example 67]	7.76
CC[C@H]1OC(=O)[C@H](C)[C@@H](O[C@H]2C[C@@](C)(OC)[C@@H](O)[C@H](C)O2)[C@H](C)[C@@H](O[C@@H]2O[C@H](C)C[C@H](N(C)CCCC(F)(F)F)[C@H]2O)[C@](C)(OC)C[C@@H](C)C(=O)[C@H](C)[C@H]2N(CCc3ccc(Cl)c(Cl)c3)C(=O)O[C@]12C [Example 71]	6.17
CC[C@H]1OC(=O)[C@H](C)[C@@H](O[C@H]2C[C@@](C)(OC)[C@@H](O)[C@H](C)O2)[C@H](C)[C@@H](O[C@@H]2O[C@H](C)C[C@H](N(C)C3CCCC3)[C@H]2O)[C@](C)(OC)C[C@@H](C)C(=O)[C@H](C)[C@H]2N(CCc3ccc(Cl)c(F)c3)C(=O)O[C@]12C [Example 18]	5.89

Now consider the entry below.
Ki for CC[C@H]1OC(=O)[C@H](C)[C@@H](O[C@H]2C[C@@](C)(OC)[C@@H](O)[C@H](C)O2)[C@H](C)[C@@H](O[C@@H]2O[C@H](C)C[C@H](N(C)CCCc3ccc(C)cn3)[C@H]2O)[C@](C)(OC)C[C@@H](C)C(=O)[C@H](C)[C@H]2N(CCc3ccc(F)c(Cl)c3)C(=O)O[C@]12C [Example 88] is 2.09
